# system.name: T1, human GIP receptor (glucose-dependent insulinotropic peptide receptor, GIPR) (human, UniProt P48546 22-466)
# T1 sequence (looked up): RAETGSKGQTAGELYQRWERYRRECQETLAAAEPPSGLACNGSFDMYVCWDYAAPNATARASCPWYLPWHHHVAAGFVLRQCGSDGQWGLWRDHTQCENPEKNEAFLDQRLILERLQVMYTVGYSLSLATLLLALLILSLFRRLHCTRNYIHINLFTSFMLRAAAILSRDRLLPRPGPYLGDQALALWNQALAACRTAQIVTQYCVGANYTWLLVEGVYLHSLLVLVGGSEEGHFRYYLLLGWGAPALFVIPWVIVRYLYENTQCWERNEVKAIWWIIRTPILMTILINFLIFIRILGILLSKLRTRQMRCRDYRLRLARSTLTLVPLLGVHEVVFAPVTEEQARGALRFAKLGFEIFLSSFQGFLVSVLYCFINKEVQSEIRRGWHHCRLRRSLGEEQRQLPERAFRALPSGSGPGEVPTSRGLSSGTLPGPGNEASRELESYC
# assay.info: cell-based or functional assay
Non-standard residues stand in square brackets, D forms with d. No end group written: not given here. Aib = CC(C)(N)C(=O)O
assay.endpoint: EC50(pM), cell agonistic activity (cAMP, HTRF)

INSERT INTO assay_data (binder, reported_value) VALUES
  ('Y[Aib]EGTFISDYSIALDKLHQEDFVNWLLAQRG [Sequence 10 (Seq ID. 10)]', 1.63),
  ('Y[Aib]EGTFISDYSIALDEIHQKDFVNWLLAQRG [Sequence 5 (Seq ID. 5)]', 6.12),
  ('Y[Aib]EGTFISDYSIALDEIHQKDFVKWLLAQKG [Sequence 4 (Seq ID. 4)]', 2.87),
  ('Y[Aib]EGTFISDYSIALDRIHQEDFVKWLLAQRG [Sequence 11 (Seq ID. 11)]', 3.44),
  ('Y[Aib]EGTFISDYSIALDKIHQQDFVNWLLAQRG [Sequence 7 (Seq ID. 7)]', 6.04),
  ('Y[Aib]EGTFISDYSIALDRIHQQDFVNWLLAQKG [Sequence 14 (Seq ID. 14)]', 18.4),
  ('Y[Aib]EGTFISDYSIALDRLHQEDFVKWLLAQRG [Sequence 15 (Seq ID. 15)]', 27.2),
  ('Y[Aib]EGTFISDYSIALDRIHQEDFVNWLLAQKG [Sequence 12 (Seq ID. 12)]', 0.81),
  ('Y[Aib]EGTFISDYSIALDKLHQQDFVNWLLAQRG [Sequence 8 (Seq ID. 8)]', 11.7),
  ('Y[Aib]EGTFISDYSIALDKIHQEDFVNWLLAQRG [Sequence 9 (Seq ID. 9)]', 16.4),
  ('Y[Aib]EGTFISDYSIALDELHQKDFVNWLLAQRG [Sequence 6 (Seq ID. 6)]', 7.93),
  ('Y[Aib]EGTFISDYSIALDRIHQQDFVKWLLAQRG [Sequence 13 (Seq ID. 13)]', 36.2),
  ('Y[Aib]EGTFISDYSI[Aib]LDKIHQEDFVKWLLAQKG [Sequence 1 (Seq ID. 1)]', 2.38),
  ('Y[Aib]EGTFISDYSIALDRLHQQDFVNWLLAQKG [Sequence 18 (Seq ID. 18)]', 16.9),
  ('Y[Aib]EGTFISDYSI[Aib]LDEIHQKDFVKWLLAQKG [Sequence 2 (Seq ID. 2)]', 10.7);
